test: qHTS Assay for Lipid Storage Modulators in Drosophila S3 Cells; conditions: BODIPY lipid droplet fluorescence, 18-24 h, cells fed with added oleic acid; series mostly up to 46.1 µM
Out of some 320,000 compounds screened, about 2,100 (0.66%) were called active. Another 53% or so got no clear call; they are omitted. Calls follow the shape of the dose curve; as a rule, active = well fitted inhibition curve with a large enough effect in the signal ratio, with a control signal flat (not every such curve was filed as active); inconclusive = small, poorly fitted or top-dose-only effect, or effect the other way, or a change in a side signal; inactive = flat fitted curve, though single readings scatter; the % refers to the signal ratio. The full list was thinned out, with actives kept by preference.
Give one outcome, nothing more. List: active, inactive

Hello, I am checking results. What call was entered for `CCCCn1nc2cc(C(=O)NCc3ccc(OC)cc3)ccc2c1OCC` ?
inactive

Also Cc1ccc(C(=O)C(OC(=O)CCC(=O)Nc2cccc(C)c2)c2ccccc2)cc1 (stereo unspecified) , if possible.
inactive

Also CS(=O)(=O)N1CCC(C(=O)NCC2CCCO2)CC1 (stereo unspecified) , if possible.
active

Also `Cc1ccccc1C(=O)NC1CCN(CC(=O)NCc2ccc(F)cc2)CC1` , if possible.
inactive

Also CCn1c(SCC(=O)NC2CC2)nnc1C(C)Oc1ccccc1 (stereo unspecified) , if possible.
inactive

Also Cc1ccccc1C1c2[nH]c3ccccc3c2C[C@H]2C(=O)N(C3CC3)CC(=O)N12 (stereo partly specified) , if possible.
inactive

Also `CCOC(=O)N1CCN(C(=O)CCc2cc(OC)c(OC)c(OC)c2)CC1` , if possible.
inactive

Also `COCCC(=O)N1CCC(Oc2ccc(C(=O)NCc3cc(C)n(C)n3)cc2)CC1` , if possible.
inactive

Also `O=C(O)CCc1ccc(-c2ccc(Br)cc2)n1Cc1ccco1` , if possible.
active

Also `Cc1cc(C)cc(NC(=O)N2CCC(NC(=O)c3ccccc3C)CC2)c1` , if possible.
inactive

Also O=C(NC1CCCCC1)C(c1ccc(F)cc1)N(Cc1ccco1)C(=O)CN1C(=O)c2ccccc2S1(=O)=O (stereo unspecified) , if possible.
inactive

Also `Cc1cc(-c2ccc(S(=O)(=O)N3CCN(c4ccc(F)cc4)CC3)s2)on1` , if possible.
inactive

Also `CC(C)(C)OC(=O)NCCCC(CCCNC(=O)OC(C)(C)C)C(=O)O` , if possible.
active

Also `CC(C)(C)OC(=O)NCCCCCO` , if possible.
inactive

Also `O=C(COC(=O)C1CC1)NCc1ccccc1` , if possible.
inactive

Also `CCOc1ccccc1CNC(=O)c1ccc(Sc2ccc(Cl)cc2)c(NC(C)=O)c1` , if possible.
inactive

Also `COC(=O)c1oc(-c2ccc(Cl)cc2)nc1C` , if possible.
inactive

Also O=C(O)C(C(O)c1ccc([N+](=O)[O-])cc1)[n+]1ccccc1 (stereo unspecified) , if possible.
inactive

Also `COc1ccc2[nH]c(=O)c(CNc3ccc(C)cc3C)cc2c1` , if possible.
inactive

Also `Cc1ccc(OCC(=O)n2cnnc2N)c(C)c1` , if possible.
inactive

Also `Nc1ccc(C(=O)Nc2cccc(NC(=O)c3ccc(N)cc3)c2)cc1` , if possible.
inactive

Also `Cc1ccc[n+](CC(=O)N2CCCc3ccccc32)c1` , if possible.
inactive

Also CCCS(=O)(=O)N1CCC(C(=O)NCC2CCCO2)CC1 (stereo unspecified) , if possible.
inactive

Also O=C(CCC(=O)OC(C(=O)c1ccccc1)c1ccccc1)Nc1ccccc1 (stereo unspecified) , if possible.
active

Also `O=C(NCC1CCCCC1)c1ccccc1[N+](=O)[O-]` , if possible.
inactive

Also `O=C(NN=C1C2CC3CC1CC(Cl)(C3)C2)c1ccccn1` , if possible.
inactive

Also `COCC(=O)N1CCC(Oc2ccc(C(=O)NCc3cc(C)n(C)n3)cc2)CC1` , if possible.
active

Also CCCCS(=O)(=O)N1CCC(C(=O)NCC2CCCO2)CC1 (stereo unspecified) , if possible.
inactive

Also `Cn1cnnc1Sc1ccc(C(F)(F)F)cc1[N+](=O)[O-]` , if possible.
inactive

Also `Cc1ccc(-c2csc3nc[nH]c(=O)c23)cc1C` , if possible.
inactive

Also O=C(NC1CCCCC1)C(c1ccc(F)cc1)N(Cc1ccco1)C(=O)Cn1nnc2ccccc21 (stereo unspecified) , if possible.
active

Also `CC1CCN(C(=O)c2ccccc2NS(=O)(=O)c2ccccc2)CC1` , if possible.
inactive

Also `O=C(COC(=O)/C=C/c1cccc(F)c1)Nc1ncccn1` , if possible.
inactive

Also `CC1CCN(C(=O)c2ccc3c(Cl)c4c(nc3c2)CCCC4)CC1` , if possible.
inactive

Also `O=C(O)CCc1ccc(-c2ccc(F)cc2)n1Cc1ccco1` , if possible.
inactive

Also `COCCNS(=O)(=O)c1ccc(-c2ccc(Cl)cc2)cc1` , if possible.
inactive

Data origin, for the record: PubChem BioAssay AID2685
